target_system: UniProt:P00742
Sequence (P00742 41-179 limits assumed): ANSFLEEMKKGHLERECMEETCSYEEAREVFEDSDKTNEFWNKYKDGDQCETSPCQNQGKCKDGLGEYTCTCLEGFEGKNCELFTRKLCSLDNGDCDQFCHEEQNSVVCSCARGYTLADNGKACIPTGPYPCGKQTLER
Sequence (P00742 235-488 limits assumed): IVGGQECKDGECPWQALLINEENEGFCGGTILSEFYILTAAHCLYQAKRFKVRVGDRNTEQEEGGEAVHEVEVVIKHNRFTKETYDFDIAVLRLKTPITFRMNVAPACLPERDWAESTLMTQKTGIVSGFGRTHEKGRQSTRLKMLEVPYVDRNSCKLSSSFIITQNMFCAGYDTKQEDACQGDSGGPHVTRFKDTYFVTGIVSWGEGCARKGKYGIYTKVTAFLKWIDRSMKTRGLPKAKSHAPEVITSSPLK
test_protocol: Inhibition of human activated Factor X using S-2765 as substrate incubated for 15 mins followed by substrate addition and measured after 1 hr by chromogenic assay
pKi: −log10 of the molar value.
assay_metric: pKi

# count of solved cases: 2
# chem_smiles, pKi
records = [
    ("C[C@@]12CC[C@@H]3[C@@](CC[C@H]4[C@@]3(C)CCC[C@@]4(C)C(=O)O)(CC1=O)C2", 4.87),
    ("CCOC(=O)[C@]1(C)CCC[C@@]2(C)[C@@H]3CC[C@@]4(C)C[C@]3(CC[C@@H]21)C/C4=N\\OCCN1CCOCC1", 6.11),
]

a: CCOC(=O)[C@]1(C)CCC[C@@]2(C)[C@@H]3CC[C@@]4(C)C[C@]3(CC[C@@H]21)C/C4=N\OCc1ccc(F)cc1
b: CCOC(=O)[C@]1(C)CCC[C@@]2(C)[C@@H]3CC[C@@]4(C)C[C@]3(CC[C@@H]21)C/C4=N\OCc1cc(Cl)ccc1Cl
c: CCOC(=O)[C@]1(C)CCC[C@@]2(C)[C@@H]3CC[C@@]4(C)C[C@]3(CC[C@@H]21)C/C4=N\OCc1csc2ccc(Cl)cc12
d: CCOC(=O)[C@]1(C)CCC[C@@]2(C)[C@@H]3CC[C@@]4(C)C[C@]3(CC[C@@H]21)C/C4=N\OC/C=C/c1ccc([N+](=O)[O-])cc1
IN: rank_up(items): orders items by reported pKi in ascending numerical order. Provide the labels, sequenced as the question asks.
OUT: b, a, d, c
(b: 5.03, a: 5.36, d: 5.58, c: 6.29)
